The reader will find reported z-score values listed item by item below.
# Test: yeast growth modulation, basal conditions, primary screen, YJM789 clinical isolate, OD600, 24 h (AID 1089);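 note: growth of clinical yeast isolate S. cerevisiae YJM 789 seeded 1000 cells per well; test concentration not given here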
# Condition Set: S. cerevisiae YJM789 growth, higher = more signal, called active from +8 up or from −8 down
Answer with a number only.

{"columns": ["Compound", "Number"],
 "data": [
  ["O=C1O[C@H](c2ccccc2)[C@H](c2ccccc2)N2[C@H]1[C@@H](C(=O)NC[C@H](O)c1ccccc1)[C@]1(C(=O)Nc3ccc(C#CCCO)cc31)[C@H]2c1ccccc1OCCO", 1.14],
  ["C[C@]1(C(=O)NCC(F)(F)F)c2ccccc2C(=O)N(Cc2ccc(OC(F)(F)F)cc2)[C@H]1c1ccc(CO)cc1", 0.0118],
  ["[N-]=[N+]=NCc1ccccc1[C@H]1OC(c2ccc(OCCCO)cc2)=N[C@@]1(Cc1ccccc1)C(=O)N1CCOCC1", -2.07],
  ["CN(C)CCCCNC(=O)[C@H]1C[C@H]2C(=O)NCC(=O)N2[C@H]1c1cccc(OCCO)c1", 0.259],
  ["CC#CCO[Si](C#CCCCCCC)(C(C)C)C(C)C", 0.176]
]}

Q: Endpoint output: z-score of O=C1c2ccccc2[C@@]2(Cc3ccccc3N(Cc3ccccc3)C2=O)[C@H](c2ccc(CO)cc2)N1Cc1ccccc1 . Value?
Ans: -0.82

Q: Check COC(=O)[C@H](Cc1ccc(O)cc1)N1CC2=CCCC=C[C@@H]2[C@H]1[C@H](O)Cc1ccccc1 too.
Ans: -0.662

Q: Check C=CCC(OC(C)=O)[C@@H]1[C@@H](N(Cc2ccc(-c3cccc(C(F)(F)F)c3)o2)C(=O)Cc2ccc(OC)cc2)c2cc(OCCCO)ccc2N1C(=O)c1ccc2ccccc2n1 (stereo partly specified) too.
Ans: 0.195

Q: Check CCOC(=O)C1=C(C(=O)OCC)N(S(=O)(=O)CC[Si](C)(C)C)[C@H](c2ccccc2)CC1 too.
Ans: 0.807

Q: Check CCC(CC)C(O)C1C=CC2C(=O)N(C)C(=O)C2N1N1CCCCC1 (stereo unspecified) too.
Ans: -0.059

Q: Check COCCn1c(C(=O)N2CCCC2)cc2c1C[C@H]1CN(C(=O)c3ccccc3)[C@@](Cc3ccccc3)(C(=O)OC)[C@@H]21 too.
Ans: 0.448
